assay text: Permeation kinetics across the in vitro epithelial tissue model
condition details: human, pH 5, Papp, in the presence of 50 nM PN159 (as printed in text)
property label: Papp at 120 min, 40 mg/ml

Challenge: GET /values?readout=Papp at 120 min, 40 mg/ml&item= COc1ccc2c3c1O[C@H]1C[C@@H](O)C=C[C@@]31CCN(C)C2 [Galantamine, galantamine, reference compound]
Response given: 6.2 ×10⁻⁶ cm/s

====

assay text: Permeation kinetics across the in vitro epithelial tissue model
condition details: human, pH 5, Papp, [PN159] 100 μM; galantamine 40 mg/mL pH 5.0; calcitonin 1 mg/mL pH 3.5; PTH1-34 1 mg/mL pH 4.5; PYY3-36 1 mg/mL pH 7.0
property label: Papp at 120 min, 40 mg/mL (×10⁻⁶ cm/s)
Answer format: numeric, ×10⁻⁶ cm/s implied, no suffix.

Challenge: GET /values?readout=Papp at 120 min, 40 mg/mL&item= COc1ccc2c3c1O[C@H]1C[C@@H](O)C=C[C@@]31CCN(C)C2 [Galantamine, galantamine, reference compound]
Response given: 7.2
